compounds and their reported %Inh
Tested on: PLK4
Settings: concentration: 1 μM, replicates: in singlicate; n = 1;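 also: KINOMEscan kinase panel screen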
Write down the numeric answer in % and omit the unit.

Examples with their reported %Inh follow.
CN1CCN(Cc2cccc(-c3ccc4c(Nc5ccc(Oc6ccccc6)cc5)ccnc4c3)c2)CC1: 0
Cc1cccc(NC(=O)Nc2ccc(Oc3ncnc4ccn(C)c34)cc2)c1: 0
O=C(NC1CCN(c2ccnc(Nc3ccc(F)cc3)n2)C1)c1cc2ccccc2s1 (stereo not drawn): 1
COc1cc(Nc2ncc3c(C)nc(-c4cc5ccccc5[nH]4)n3n2)cc(OC)c1OC: 0
O=C(Nc1cccc(-c2nn3ccccc3c2-c2ccnc(Nc3cccc(C(F)(F)F)c3)n2)c1)c1c(F)cccc1F: 3
Cc1ccc(C(=O)N2CC[C@@H](O)C2)cc1-n1c(C)cc(OCc2ccc(F)cc2F)c(Br)c1=O: 0
Cc1ccc(C(=O)Nc2ccc(Nc3ccnc4cc(-c5nccs5)ccc34)cc2O)cc1.Cl: 98.4
CCCCc1nn2ncccc2c1-c1ccnc(Nc2ccc(N3CCN(C)CC3)cc2)n1: 74

Report value: %Inh, system: PLK4, compound: FC(F)(F)c1ccc(/C=C/c2cncnc2Nc2ccc3[nH]c(Cc4ccccc4)nc3c2)cc1
0

Report value: %Inh, system: PLK4, compound: NCCCC(NC(=O)c1cc(Br)c(-c2ccnc3[nH]ccc23)s1)c1ccccc1.O=C(O)C(F)(F)F.O=C(O)C(F)(F)F (stereo not drawn)
0

====

compounds and their reported %Inh
Tested on: SLK
Details: concentration: 1 μM, replicates: in singlicate; n = 1

Examples with their reported %Inh follow.
C[C@@H](Oc1cc(-n2cnc3cc(-c4ccnc(NCCS(C)(=O)=O)c4)ccc32)sc1C(N)=O)c1ccccc1Cl: 99%
O=C(Nc1n[nH]c2nc(-c3ccc(O)cc3)ccc12)C1CC1: 61%
CC(=O)Nc1nc2cnc(Nc3cc(NC(=O)c4cccc(C5(C#N)CC5)c4Cl)ccc3C)nc2s1: 23%

Assign %Inh to the following record: COc1cc(Nc2ncc3c(C)nc(-c4cc5ccccc5[nH]4)n3n2)cc(OC)c1OC
63%

Assign %Inh to the following record: c1ccc(-c2n[nH]cc2Nc2ccnc3ccccc23)nc1
0%

Assign %Inh to the following record: COc1cccc(C2=C(Nc3ccc(Cl)c(C(=O)O)c3)C(=O)NC2=O)c1
16%

Assign %Inh to the following record: COc1cc(Nc2nccc(-c3c(-c4cccc(NC(=O)c5c(F)cccc5F)c4)nn4ccccc34)n2)cc(OC)c1OC
25%

Assign %Inh to the following record: c1ccc(Oc2ccc(Nc3ccnc4cc(-c5ccc(CNCCN6CCOCC6)o5)ccc34)cc2)nc1
8%

Assign %Inh to the following record: Cl.c1ccc(-c2ccc3c(Nc4ccc5[nH]ccc5c4)ccnc3c2)nc1
84%

Assign %Inh to the following record: CN1CCN(CCCNc2nccc(-c3c(-c4ccc(F)cc4)nn4cc(C(F)(F)F)ccc34)n2)CC1
42%

Assign %Inh to the following record: O=C(Nc1cccc(Oc2ccc3nc(NC(=O)C4CC4)cn3n2)c1)c1ccccc1C(F)(F)F
32%

Assign %Inh to the following record: O=c1[nH]cc(-c2ccc(N3CCOCC3)cc2)c2sc(-c3cn[nH]c3)cc12
0%

Assign %Inh to the following record: CC(C)(C)c1ccc2nccc(Nc3cccc(O)c3)c2c1
55%

Assign %Inh to the following record: Cc1ccc(C(=O)N2CC[C@@H](O)C2)cc1-n1c(C)cc(OCc2ccc(F)cc2F)c(Br)c1=O
0%

Assign %Inh to the following record: CCn1c(-c2nonc2N)nc2c(C#CC(C)(C)O)nc(OC[C@H](N)c3ccccc3)cc21
6%

Assign %Inh to the following record: COc1cccc(-c2ccc3c(NC(=O)C4CC4)n[nH]c3n2)c1
30%

Assign %Inh to the following record: O=C(O)C(F)(F)F.O=C(O)C(F)(F)F.O=c1[nH]ccc2nc(N[C@@H]3CCCNC3)nc(Nc3ccc(S(=O)(=O)N4CCOCC4)cc3)c12
98.4%

====

molecules and their reported %Inh
Test system: FAK
Construct: gene PTK2
Details: concentration: 1 μM, replicates: in singlicate; n = 1
Write down the numeric answer in % and omit the unit.

Examples with their reported %Inh follow.
COc1ccc(Nc2nccc(NCCNC(=O)c3cc4ccccc4s3)n2)cc1 [GSK1379896]: 11
Nc1n[nH]c2cnc(-c3ccccc3)cc12 [SB-642124]: 0
CN(C)S(=O)(=O)c1cc(-c2ccc3nccc(-c4cccc(S(N)(=O)=O)c4)c3c2)cnc1N [GSK1669921]: 0

Assign %Inh to the following record: O=c1[nH]cc(-c2ccc(N3CCOCC3)cc2)c2sc(-c3cn[nH]c3)cc12 [GSK2276055]
0

Assign %Inh to the following record: Cl.Cl.NCC(NC(=O)c1cc(-c2ccccc2)c(-c2ccnc3[nH]ccc23)s1)c1ccccc1 (stereo not drawn) [GSK1321561]
0

Assign %Inh to the following record: CC(C)(C)c1ccc2nccc(Nc3cccc(O)c3)c2c1 [GW856795]
0

Assign %Inh to the following record: CN(C)Cc1ccc(-c2ccc3c(Nc4ccc(Oc5ccccn5)cc4)ccnc3c2)o1 [GW567148]
0

Assign %Inh to the following record: Cc1ccc(C(=O)N2CC[C@@H](O)C2)cc1-n1c(C)cc(OCc2ccc(F)cc2F)c(Br)c1=O
0

Assign %Inh to the following record: COc1cccc(C(=O)Nc2cccc(Oc3ccc4nc(NC(=O)C5CC5)cn4n3)c2)c1
1

Assign %Inh to the following record: Cc1occc1-c1ncc(OC[C@@H](N)Cc2c[nH]c3ccccc23)cc1-c1ccc2[nH]nc(C)c2c1.O=C(O)C(F)(F)F [GSK682037]
40

Assign %Inh to the following record: O=C(Nc1cccc(-c2nn3ccccc3c2-c2ccnc(Nc3cccc(C(F)(F)F)c3)n2)c1)c1c(F)cccc1F [GSK292658]
0

====

Test system: ERBB2
Conditions: concentration: 1 μM, replicates: in singlicate; n = 1
compounds and their reported %Inh
Write down the numeric answer in % and omit the unit.

Assign %Inh to the following record: COc1cc(Nc2nccc(-c3c(-c4cccc(NC(=O)c5c(F)cccc5F)c4)nn4ncccc34)n2)cc(OC)c1OC
98.6

Assign %Inh to the following record: Cn1cc(-c2ccc3c(c2)CCN3C(=O)Cc2cccc(Cl)c2)c2c(N)ncnc21
5

Assign %Inh to the following record: Cl.c1ccc(-c2ccc3c(Nc4ccc5[nH]ccc5c4)ccnc3c2)nc1
63

====

Tested on: BIKE
Construct: gene BMP2K
Conditions: concentration: 1 μM, replicates: in singlicate; n = 1
Metric: %Inh (%)
Write down the numeric answer in % and omit the unit.

FC(F)(F)c1ccc(/C=C/c2cncnc2Nc2ccc3[nH]c(Cc4ccccc4)nc3c2)cc1 [GW709199]: 0

Assign %Inh to the following record: O=C(Nc1cccc(Oc2ccc3nc(NC(=O)C4CC4)cn3n2)c1)c1ccccc1C(F)(F)F
79

Assign %Inh to the following record: C[C@@H](Oc1cc(-n2cnc3cc(-c4ccnc(NCCS(C)(=O)=O)c4)ccc32)sc1C(N)=O)c1ccccc1Cl [GSK907232]
97.7

Assign %Inh to the following record: COc1cc2c(cc1OCCN1CCNCC1)ncc1c3ccc(C#N)cc3[nH]c21
97.8

Assign %Inh to the following record: Cc1cccc(Nc2nc(N[C@H]3CCNC3)ncc2C(N)=O)c1.Cl [GSK2197149]
96.9

====

compounds and their reported %Inh
System: RIPK4
Details: concentration: 1 μM, replicates: in singlicate; n = 1
Write down the numeric answer in % and omit the unit.

Examples with their reported %Inh follow.
Cn1cc(-c2ccc3c(c2)CCN3C(=O)Cc2cccc(Cl)c2)c2c(N)ncnc21 [GSK2606590]: 0
Nc1ncc(-c2cccnc2)c2scc(-c3ccc4c(c3)CCN4C(=O)Cc3ccccc3)c12 [GSK683281]: 16
O=C(Nc1cccc(-c2nn3ncccc3c2-c2ccnc(Nc3ccccc3)n2)c1)c1c(F)cccc1F [GSK198271]: 10
Cc1ccc(S(=O)(=O)Nc2ccc(Nc3nccc(Nc4cccc5[nH]ncc45)n3)cc2)cc1 [GSK581271]: 0
COC(=O)Nc1nc2cc(Oc3ccc(NC(=O)Nc4cc(C(F)(F)F)ccc4F)cn3)ccc2[nH]1.Cl.Cl [GW681170]: 0
Cn1cc(-c2[nH]c3cc(NC(=O)[C@H](N)C4CCCCC4)cc4c3c2C=NNC4=O)cn1: 87

Assign %Inh to the following record: COCCOCCOc1cc2ncc3c4ccc(C#N)cc4[nH]c3c2cc1OC
17

Assign %Inh to the following record: FC(F)(F)c1ccc(/C=C/c2cncnc2Nc2ccc3[nH]c(Cc4ccccc4)nc3c2)cc1 [GW709199]
0

====

molecules and their reported %Inh
Tested on: CAMK1
Conditions: concentration: 1 μM, replicates: in singlicate; n = 1
Write down the numeric answer in % and omit the unit.

Assign %Inh to the following record: COc1cc(Nc2ncc3c(C)nc(-c4cc5ccccc5[nH]4)n3n2)cc(OC)c1OC
19

Assign %Inh to the following record: COc1cc(Nc2nccc(-c3c(-c4cccc(NC(=O)c5c(F)cccc5F)c4)nn4ncccc34)n2)cc(OC)c1OC
58

Assign %Inh to the following record: COc1cc(Nc2nccc(N3CCC(NC(=O)Nc4cccc(C(C)=O)c4)C3)n2)cc(OC)c1OC (centres unmarked)
42

Assign %Inh to the following record: Cc1cccc(Nc2nc(N[C@H]3CCNC3)ncc2C(N)=O)c1.Cl
41

Assign %Inh to the following record: COc1cccc(C(=O)Nc2cccc(Oc3ccc4nc(NC(=O)C5CC5)cn4n3)c2)c1
16

Assign %Inh to the following record: Cl.Cl.NCC(NCc1ccc(-c2ccnc3[nH]ccc23)s1)c1ccccc1 (centres unmarked)
10

Assign %Inh to the following record: COc1cc(Nc2nccc(N3CCC(NC(=O)c4cc5ccccc5s4)C3)n2)cc(OC)c1OC (centres unmarked)
17

Assign %Inh to the following record: C[C@@H]1CC[C@@H](C(=O)Nc2ccccc2)CN1c1cc(-c2ccc3c(N)n[nH]c3c2)nc(N)n1
28
